The values you see were collected from the supplement of paper PMC9112550.

# Test system: Escherichia coli TOP10
# Test Method Notes: shrunken log2 fold change of peptide-encoding DNA abundance (4.5 h post-induction vs induction); higher = less antimicrobial activity (less host growth inhibition)
# Measurement Setup: time post-induction: 4.5 h; library: site-saturation at positions 5, 18, 19, 20
Each entry below lists one item and its recorded shrunken log2 fold change value.

Record Sequence	shrunken log2 fold change
RRIRGRPPRLPRPRPRPCLHPRP	0.331
RRIRQRPPRLPRPRPRPNQQPRP	-0.0802
RRIRNRPPRLPRPRPRPMHLPRP	-0.179
RRIRARPPRLPRPRPRPAVFPRP	0.679
RRIRRRPPRLPRPRPRPMFPPRP	0.118
RRIRSRPPRLPRPRPRPKTIPRP	-0.174
RRIRYRPPRLPRPRPRPYKYPRP	-0.238
RRIRQRPPRLPRPRPRPHQEPRP	-0.00692
RRIRVRPPRLPRPRPRPQHTPRP	-0.0855
RRIRSRPPRLPRPRPRPRYTPRP	-0.145
RRIRNRPPRLPRPRPRPVTWPRP	-0.0637
RRIRRRPPRLPRPRPRPWIYPRP	-0.118
RRIRCRPPRLPRPRPRPGFHPRP	-0.435
RRIRRRPPRLPRPRPRPRFAPRP	0.616
RRIRMRPPRLPRPRPRPRCYPRP	-0.00529

---

# Test system: Escherichia coli TOP10
# Test Method Notes: shrunken log2 fold change of peptide-encoding DNA abundance (4.5 h post-induction vs induction); higher = less antimicrobial activity (less host growth inhibition)
# Measurement Setup: time post-induction: 4.5 h; library: site-saturation at positions 5, 18, 19, 20
Metric: shrunken log2 fold change

Record Sequence	Metric	Meas Value
RRIRSRPPRLPRPRPRPEWGPRP	shrunken log2 fold change	0.0115
RRIRFRPPRLPRPRPRPVGEPRP	shrunken log2 fold change	0.29
RRIRMRPPRLPRPRPRPCQTPRP	shrunken log2 fold change	0.0245
RRIRIRPPRLPRPRPRPVFPPRP	shrunken log2 fold change	-0.221
RRIRERPPRLPRPRPRPKMDPRP	shrunken log2 fold change	-0.0491
RRIRCRPPRLPRPRPRPSPFPRP	shrunken log2 fold change	-0.0566
RRIRFRPPRLPRPRPRPGHQPRP	shrunken log2 fold change	-0.233
RRIRRRPPRLPRPRPRPGQDPRP	shrunken log2 fold change	0.112
RRIRQRPPRLPRPRPRPGNFPRP	shrunken log2 fold change	0.0262
RRIRHRPPRLPRPRPRPDWMPRP	shrunken log2 fold change	-0.222
RRIRFRPPRLPRPRPRPADGPRP	shrunken log2 fold change	0.183
RRIRVRPPRLPRPRPRPAYQPRP	shrunken log2 fold change	-0.264
RRIRIRPPRLPRPRPRPVVYPRP	shrunken log2 fold change	-0.312
RRIRVRPPRLPRPRPRPSQIPRP	shrunken log2 fold change	-0.206
RRIRLRPPRLPRPRPRPACMPRP	shrunken log2 fold change	0.00459

---

# System: Escherichia coli TOP10;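 further: peptides expressed intracellularly from a pBAD plasmid library in pooled LB shake-flask culture, induced with 0.3% L-arabinose, DNA abundance read by NGS, three biological replicates, DESeq2 with apeglm shrinkage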
# Test Method Notes: shrunken log2 fold change of peptide-encoding DNA abundance (4.5 h post-induction vs induction); higher = less antimicrobial activity (less host growth inhibition)
# Measurement Setup: time post-induction: 4.5 h; library: site-saturation at positions 5, 18, 19, 20
Class membership depends on shrunken log2 fold change alone; the intervals are range 1 (below -0.1), range 2 (-0.1 to below 0.02), range 3 (0.02 or more)

Record Sequence	Class Label
RRIRMRPPRLPRPRPRPISYPRP	range 2
RRIRTRPPRLPRPRPRPVRRPRP	range 3
RRIRPRPPRLPRPRPRPQENPRP	range 1
RRIRWRPPRLPRPRPRPGSIPRP	range 2
RRIRKRPPRLPRPRPRPYHNPRP	range 1
RRIRIRPPRLPRPRPRPELCPRP	range 3
RRIRPRPPRLPRPRPRPVMIPRP	range 1
RRIRDRPPRLPRPRPRPKPVPRP	range 2
RRIRTRPPRLPRPRPRPSMVPRP	range 2
RRIRYRPPRLPRPRPRPERAPRP	range 3
RRIRFRPPRLPRPRPRPARFPRP	range 3
RRIRCRPPRLPRPRPRPWNRPRP	range 1
RRIRQRPPRLPRPRPRPRTEPRP	range 3
RRIRMRPPRLPRPRPRPSHVPRP	range 2
RRIRTRPPRLPRPRPRPNLMPRP	range 1
RRIRHRPPRLPRPRPRPDGDPRP	range 2
RRIRCRPPRLPRPRPRPIGGPRP	range 1
RRIRRRPPRLPRPRPRPSHMPRP	range 3
RRIRDRPPRLPRPRPRPPHLPRP	range 2
RRIRKRPPRLPRPRPRPQFHPRP	range 3
RRIRGRPPRLPRPRPRPSNHPRP	range 1
RRIRSRPPRLPRPRPRPCVDPRP	range 2
RRIRCRPPRLPRPRPRPKRIPRP	range 1
RRIRSRPPRLPRPRPRPVLKPRP	range 2
RRIRYRPPRLPRPRPRPQTRPRP	range 1
RRIRYRPPRLPRPRPRPVPEPRP	range 1
RRIRIRPPRLPRPRPRPMFAPRP	range 2
RRIRCRPPRLPRPRPRPMHTPRP	range 1
RRIRDRPPRLPRPRPRPIIAPRP	range 3
RRIRMRPPRLPRPRPRPREQPRP	range 3
RRIRSRPPRLPRPRPRPGLLPRP	range 2
RRIRCRPPRLPRPRPRPGKYPRP	range 1
RRIRVRPPRLPRPRPRPELYPRP	range 3
RRIRIRPPRLPRPRPRPMTQPRP	range 3
RRIRGRPPRLPRPRPRPFRRPRP	range 3
RRIRQRPPRLPRPRPRPMKDPRP	range 1
RRIRWRPPRLPRPRPRPMVTPRP	range 2
RRIRVRPPRLPRPRPRPPICPRP	range 1
RRIRGRPPRLPRPRPRPLLVPRP	range 3
RRIRRRPPRLPRPRPRPRCKPRP	range 3
RRIRFRPPRLPRPRPRPKVHPRP	range 3
RRIRWRPPRLPRPRPRPDHYPRP	range 2
RRIRIRPPRLPRPRPRPDPSPRP	range 2
RRIRMRPPRLPRPRPRPCWIPRP	range 1
RRIRARPPRLPRPRPRPMPRPRP	range 3
RRIRARPPRLPRPRPRPSFWPRP	range 3
RRIRMRPPRLPRPRPRPQFKPRP	range 1
RRIRKRPPRLPRPRPRPVYAPRP	range 2
RRIRYRPPRLPRPRPRPTYLPRP	range 1
RRIRSRPPRLPRPRPRPGFPPRP	range 2
